Assay: Chromatographic hydrophobicity index on C18 column (lipophilicity)
Type: physicochemical
Conditions: pH 2.6
MEASURED QUANTITY: CHI C18 pH 2.6

{"MOLECULE": "COc1ccc2c(c1)N=C(NS(=O)(=O)c1cccc3ccccc13)NC2", "MEASURED QUANTITY": "CHI C18 pH 2.6", "REPORTED": 88.2}
{"MOLECULE": "CN1CCN2c3ccccc3Cc3ccccc3C2C1 (stereo not shown) [Mianserin, reference compound]", "MEASURED QUANTITY": "CHI C18 pH 2.6", "REPORTED": 59.4}
{"MOLECULE": "CC1NC(NS(=O)(=O)c2cccc3ccccc23)=Nc2c(Cl)cccc21 (stereo not shown)", "MEASURED QUANTITY": "CHI C18 pH 2.6", "REPORTED": 102.2}
{"MOLECULE": "O=S(=O)(NC1=Nc2ccccc2CN1)c1ccc(F)cc1", "MEASURED QUANTITY": "CHI C18 pH 2.6", "REPORTED": 75.4}
{"MOLECULE": "O=S(=O)(NC1=Nc2cc(Cl)ccc2CN1)c1ccc2ccccc2c1", "MEASURED QUANTITY": "CHI C18 pH 2.6", "REPORTED": 98.3}
{"MOLECULE": "CC1NC(NS(=O)(=O)c2cccc3ccccc23)=Nc2cccc(F)c21 (stereo not shown)", "MEASURED QUANTITY": "CHI C18 pH 2.6", "REPORTED": 94.6}
{"MOLECULE": "O=S(=O)(NC1=Nc2cc(F)ccc2CN1)c1cccc2ccccc12", "MEASURED QUANTITY": "CHI C18 pH 2.6", "REPORTED": 91.0}
